Assign CC50 at 24 h to each entry below.
- measurement description: Cell viability assay (MTT) in RAW264.7 cells
- Assay type: cell-based
- run parameters: mouse, RAW264.7 macrophage cells, 6.25-100 μg/mL, LPS 100 ng/mL, mean ± SD of three independent experiments

Observe how each entry below is paired with its result.
[Q] Requested read-out: CC50 at 24 h. Entry: COc1cc(C(=O)O)cc(OC)c1O
[A] > 100 µg/mL

[Q] Reported CC50 at 24 h for O=C(O)c1ccc(O)c(O)c1 : what is it?
[A] > 100 µg/mL

[Q] Item COC(=O)C1=CNC(=O)[C@@H]2[C@@H](C)[C@@H](O)C[C@H]12 has what recorded CC50 at 24 h?
[A] > 100 µg/mL

Next item in the queue.
[Q] Given COC(=O)c1ccc(O)c(O)c1 , state its recorded CC50 at 24 h.
[A] > 100 µg/mL

Reference source: paper PMC6930649
